All values here come from patent US20240327534A1.

Please go through the items and note down their Kd.
Target: T1, human BCMA protein (human, UniProt Q02223 1-54, limits assumed)
T1 sequence: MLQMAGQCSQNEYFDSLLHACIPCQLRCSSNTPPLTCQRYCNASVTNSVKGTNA
Test: affinity of purified protein to human BCMA protein, method not stated
# unit: nM | format: bare number

Can you look up the measured Kd of 01F07-M34G TriTAC (other, not shown: large carriers; small tags and cut ends, trispecific; also called 01F01-M34G) VHH: EVQLVESGGGLVQPGRSLTLSCAASTNIFSTSPGGWYRQAPGKQRELVAAIHGFSTIYADSVKGRFTISRDNAKNSIYLQMNSLRPEDTALYYCNKVPWGDYHPGNVYWGQGTQVTVSS for me?
6

Can you look up the measured Kd of 02G02-M34G TriTAC (other, not shown: large carriers; small tags and cut ends, trispecific) VHH: EVQLVESGGGLVQPGRSLTLSCAASTNIFSITPGGWYRQAPGKQRELVAAIHGASTLYADSVKGRFTISRDNAKNSIYLQMNSLRPEDTALYYCNKVPWGDYHPGNVYWGQGTQVTVSS for me?
7

Can you look up the measured Kd of 02G02-M34Y TriTAC (other, not shown: large carriers; small tags and cut ends, trispecific) VHH: EVQLVESGGGLVQPGRSLTLSCAASTNIFSITPYGWYRQAPGKQRELVAAIHGASTLYADSVKGRFTISRDNAKNSIYLQMNSLRPEDTALYYCNKVPWGDYHPGNVYWGQGTQVTVSS for me?
5

Can you look up the measured Kd of 01F07-M34Y TriTAC (other, trispecific; not shown: anti-albumin domain, anti-CD3 domain and the linkers of the TriTAC; the C-terminal His6 that follows them is left out) VHH: EVQLVESGGGLVQPGRSLTLSCAASTNIFSTSPYGWYRQAPGKQRELVAAIHGFSTIYADSVKGRFTISRDNAKNSIYLQMNSLRPEDTALYYCNKVPWGDYHPGNVYWGQGTQVTVSS for me?
3
